- test-method-notes: glutamate transport activators, MN-1 cells, MN-1 cell line (AID 1612);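 note: tested at 1 µM final; 0% = mean of DMSO vehicle wells on each plate; positive means more glutamate uptake than control and negative means less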
- measurement-context: MN-1 motor neuron cells, stronger effect = higher value
quantity-kind: glutamate uptake change (%)
I only need the number, in %, no unit after it.

Some entries whose results are on file:
glutamate uptake change reading for `COc1ccc2cc3[n+](cc2c1OC)CCc1cc2c(cc1-3)OCO2` : 15.2

compound CC(=O)Nc1ccc(OCC(O)CNC(C)C)cc1 (configuration not stated) , glutamate uptake change observed: -0.19

The value of glutamate uptake change measured for the compound `O=c1cc(CO)occ1O` turned out to be 5.22

compound `Nc1ccc(C(=O)NCC(=O)O)cc1` , glutamate uptake change observed: -9.5

Short answer for `COc1ccc(CN(CCN(C)C)c2ccccn2)cc1` : glutamate uptake change was 0.17

Next:
glutamate uptake change for CCN(CC)CCOC(=O)C(c1ccccc1)C1CCCCC1 (configuration not stated) is 1.54

Entry `CN(Cc1cnc2nc(N)nc(N)c2n1)c1ccc(C(=O)N[C@@H](CCC(=O)O)C(=O)O)cc1` ; glutamate uptake change = 10.9

For reference, reported glutamate uptake change for C=CCc1ccccc1OCC(O)CNC(C)C (configuration not stated) stands at -6.27

Value of measured glutamate uptake change for the entry `O=C(O)CCCCCCCC(=O)O` : 4.35

Per the record, `CCN(CC)CCNC(=O)c1cc(Cl)c(N)cc1OC` has glutamate uptake change of -0.01

Entry `Cn1c([N+](=O)[O-])cnc1COC(N)=O` ; glutamate uptake change = 17

Please fill in: glutamate uptake change reported for `O=C(O)c1ccccc1Nc1cccc(C(F)(F)F)c1` = -15.4
